Tested on: TK-10 renal
Experiment: NCI tumour cell line growth inhibition, 48 h
Measured TGI, listed per entry.

Answered cases to consult:
Nc1ncnc2c1ncn2CCOC(c1ccccc1)P(=O)(O)O (stereo unspecified)	> 100 µM
CC(C)c1cc(C(C)C)c(Cl)c(Cl)c1O (tested in a mixture with another compound)	54.3 µM
CCN(CC)C(=S)SSCCO	40.8 µM
Oc1ccc(-c2[nH]c3ccccc3c2-c2nc3ccccc3o2)cc1	16.8 µM
Cc1ccc(C=C(C(=O)O)C(=O)O)o1	> 100 µM

Record `Cc1cc(OC(=O)c2c(C)cc(OC(=O)c3c(C)cc(O)cc3O)cc2O)cc(O)c1C(=O)O` . Reported TGI: > 100 µM

====

Tested on: MDA-MB-231 breast
Assay: NCI tumour cell line growth inhibition, 48 h
Measured GI50, listed per entry.

Answered cases to consult:
O=C(/C=C/c1cccc(Oc2ccc(Cl)cc2)c1)c1ccccc1	29100 nM
Cc1ccc(O)cc1Nc1ccnc2cc(-c3ccccn3)ccc12	1250 nM
CCN(CC)C(=O)CCCCCn1c2ccccc2c2c3c(c4c5ccccc5[nH]c4c21)C(=O)N(O)C3=O	5520 nM

Record for OC(c1cc(-c2ccc(Cl)cc2)nc2c(Cl)cccc12)C1CCCCN1 (stereo not given) under target or system MDA-MB-231 breast: GI50 reported as 1490 nM

Record for `O=C(Nc1nc2c(s1)CCc1c-2c(Br)n(Cc2ccccc2)c1Br)c1ccccc1` under target or system MDA-MB-231 breast: GI50 reported as 2160 nM

====

System: HCT-116 colon
Test: NCI tumour cell line growth inhibition, 48 h
ENDPOINT LABEL: TGI

Answered cases to consult:
O=C(NN1C(=O)C(Cl)C1c1c(O)ccc2ccccc12)c1ccccc1O (stereo not given)	> 100 µM
C=CCCCCCCCCC(=O)ON(Cc1ccc(O)c(OC)c1)C(=O)C(F)(F)F	> 100 µM
COC(=O)[C@]1(C)CCCC2(C)C3=C(CCC21)CC1(CC3)SCCS1 (stereo not given in full)	> 10 µM
Nc1ncc(Sc2ccccc2C(=O)O)s1	> 100 µM
NNC(=O)N/N=C1\CNC(=O)C(=O)C1c1nc2ccccc2s1 (stereo not given)	> 100 µM
Cn1cc(NC(=O)c2cc(NC(=O)CCCCCCCC(=O)Nc3cc(C(=O)Nc4cc(C(=O)NCCC(=N)N)n(C)c4)n(C)c3)cn2C)cc1C(=O)NCCC(=N)N	42.3 µM
CC1(C)N=C(N)N=C(N)N1c1ccc(OCCCCNC(=O)Nc2cccc(S(=O)(=O)F)c2)c(Cl)c1	> 100 µM
OC1CSCCSCCCSCCSC1	> 100 µM

Record CC1CCC2c3c([nH]c4ccccc34)C3C(=O)N(c4ccccc4)C(=O)C3C2C1 (stereo not given) . Reported TGI: > 250 µM

Record C=CC(C)(O)CCC1C(=C)C(O)CC2C(C)(C)CCCC12C (stereo not given) . Reported TGI: 31.8 µM

====

System: OVCAR-4 ovarian
Test: NCI tumour cell line growth inhibition, 48 h
Where a SMILES comes first, the peptide text is derived from it. The star is where a group is joined. Boc = CC(C)(C)OC(=O)*; tBu = CC(C)(C)*
Measured TGI, listed per entry.

Answered cases to consult:
CN1CC[C@]23c4c5ccc(O)c4OC2c2[nH]ncc2C[C@H]3[C@H]1C5 (stereo partly specified)	> 100 µM
CCOC(=O)n1c2ccccc2c(=O)n1CCO	> 100 µM
Cc1ccc(NC2=CC(=O)C(=O)c3ccccc32)c(C)c1	12.2 µM
O=C(O)Cc1ccc(Oc2nc3ccccc3nc2-c2ccccc2)cc1	> 100 µM
Clc1ccc(Cn2cc(/C=N/n3cnnc3)c3ccccc32)cc1	> 100 µM
CC(C)(CC1(C)NC(=O)NC1=O)OCc1ccccc1 (stereo unspecified)	> 100 µM
Cc1ccc(O)cc1Nc1ccnc2cc(-c3ccccn3)ccc12	11.7 µM
Cc1nn2c(-c3nc4cc(Cl)c(Cl)cc4[nH]3)c(-c3ccc(F)cc3)nc2s1	0.781 µM

Record `Cn1cc(NC(=O)c2cc(NC(=O)CCCCCCCC(=O)Nc3cc(C(=O)Nc4cc(C(=O)NCCC(=N)N)n(C)c4)n(C)c3)cn2C)cc1C(=O)NCCC(=N)N` . Reported TGI: > 100 µM

Record `CC(C)C/C(=N\NC(=O)c1ccncc1)c1cc(Cl)ccc1O` . Reported TGI: > 32.4 µM

Record CC(OC(C)(C)C)C(NC(=O)C(N)CCCCNC(=O)OC(C)(C)C)C(=O)NC(Cc1ccccc1)C(=O)O (stereo unspecified) (H-Lys(Boc)-Thr(tBu)-Phe-OH; configuration not given here) . Reported TGI: > 100 µM
